- tgt: T1, human CD3 on CD3+ Jurkat cells (human, UniProt P07766 23-207)
- T1 construct: whole, on cells; Native CD3 complex on cells; the other CD3 chains are not specified for this assay; also called Human CD3+ Jurkat
- assaySummary: flow cytometry, 100 nM IgG on CD3+ Jurkat cells, pH 7.4
propertyMeasured: MFI pH 7.4 (MFI)
Please give a number only; it is taken to be in MFI.

Incoming: For SAD10320_P02_F05 (ADI-48651) (antibody, V domains shown, IgG; also called Ab79) VH: QVQLVQSGAEVKKPGASVKVSCKASGFNIKDYYMHWVRQAPGQRLEWMGWIDLENANTIYDAKFQGRVTITRDTSASTAYMELSSLRSEDTAVYYCARDAYGRYHYDVWGQGTLVTVSS VL: DIVMTQSPDSLAVSLGERATINCKSSQSLLNARTGKNYLAWYQQKPGQPPKLLIYWASTRESGVPDRFSGSGSGTDFTLTISSLQAEDVAVYYCKQSYRHRTFGGGTKVEIK , what is its reported MFI pH 7.4?
Outgoing: 4110

Incoming: I'd like to know its MFI pH 7.4. The binder in question is SAD10318_P03_F08 (ADI-48606) (antibody, V domains shown, IgG; also called Ab200) VH: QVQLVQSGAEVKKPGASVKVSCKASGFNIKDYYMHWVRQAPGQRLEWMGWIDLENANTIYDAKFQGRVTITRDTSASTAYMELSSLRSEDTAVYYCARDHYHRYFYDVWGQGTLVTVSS VL: DIVMTQSPDSLAVSLGERATINCKSSQSLLNAHTGKNHLAWYQQKPGQPPKLLIYWASTRESGVPDRFSGSGSGTDFTLTISSLQAEDVAVYYCKQSYSRRHFGGGTKVEIK
Outgoing: 76
